# System Under Test: STK25 (human)
# Assay Method Text: radiometric filter-binding kinase assay, Kinase HotSpot
# Experimental Parameters: compound 0.5 µM; ATP 10 µM

{"Molecule Smiles": "CNC(=O)c1cc(Oc2ccc(NC(=O)Nc3ccc(Cl)c(C(F)(F)F)c3)cc2)ccn1", "residual activity, %": 104}
{"Molecule Smiles": "CCCC(=O)Oc1ccc2[nH]c(C(=O)c3cc4ccccc4[nH]3)cc2c1", "residual activity, %": 94.5}
{"Molecule Smiles": "CC#CC(=O)Nc1cc2c(Nc3ccc(F)c(Cl)c3)ncnc2cn1", "residual activity, %": 97.1}
{"Molecule Smiles": "Nc1ncnc2[nH]nc(Nc3ccc(F)cc3)c12", "residual activity, %": 112}
{"Molecule Smiles": "Nc1cccc(-c2cc3c(Oc4cccc(O)c4)ncnc3[nH]2)c1", "residual activity, %": 91.6}
{"Molecule Smiles": "N#CC(C#N)=C(N)/C(C#N)=C/c1ccc(O)cc1", "residual activity, %": 90.4}
{"Molecule Smiles": "O=C1NC(=O)C(c2cn(CCCn3ccnc3)c3ccccc23)=C1Nc1ccccc1", "residual activity, %": 63.1}
{"Molecule Smiles": "CC(C)N(CCC(=O)c1ccc2ccccc2c1)Cc1ccccc1", "residual activity, %": 94}
{"Molecule Smiles": "O=C1NC(=O)c2c1c1c3ccccc3n3c1c1c2c2ccccc2n1C1CCC3O1", "residual activity, %": 34.4}

The reported numbers originate from the kinase profiling compilation of Christmann-Franck et al. (2016).
